Test system: clinical isolates of S. aureus
Assay: SA MIC90
Format: cell-based
Details: Staphylococcus aureus; inhibit 90% of S. aureus clinical isolates (n = 20); read-out: SA MIC 90
Below is a list of entries, each paired with its recorded MIC90 value.
Answer format reminder: number followed by unit.

Look over these answered cases.
compound	measure.name	measurement
CN(C)CC(=O)Nc1cc(F)c2c(c1O)C(=O)C1=C(O)[C@]3(O)C(=O)C(C(N)=O)=C(O)[C@@H](N(C)C)[C@@H]3C[C@@H]1C2 [drawing 220]	MIC90	0.06 µg/mL
CN(C)[C@@H]1C(O)=C(C(N)=O)C(=O)[C@@]2(O)C(O)=C3C(=O)c4c(O)c(NC(=O)CNCC5CC5)cc(F)c4C[C@H]3C[C@@H]12 [drawing 218]	MIC90	0.03 µg/mL
CN(C)[C@@H]1C(O)=C(C(N)=O)C(=O)[C@@]2(O)C(O)=C3C(=O)c4c(O)c(NC(=O)CN5CCCC5)cc(F)c4C[C@H]3C[C@@H]12 [drawing 217]	MIC90	0.03 µg/mL
CC(C)CNCC(=O)Nc1cc(F)c2c(c1O)C(=O)C1=C(O)[C@]3(O)C(=O)C(C(N)=O)=C(O)[C@@H](N(C)C)[C@@H]3C[C@@H]1C2 [drawing 215]	MIC90	0.03 µg/mL

Note to self: MIC90 recorded for CC(C)NCC(=O)Nc1cc(F)c2c(c1O)C(=O)C1=C(O)[C@]3(O)C(=O)C(C(N)=O)=C(O)[C@@H](N(C)C)[C@@H]3C[C@@H]1C2 [drawing 219] was 0.06 µg/mL

* * *

Tested on: clinical isolates of S. aureus
Assay: SA MIC90
Assay type: cell-based
Settings: Staphylococcus aureus; inhibit 90% of S. aureus clinical isolates (n = 20); read-out: SA MIC 90
measure.name: MIC90 (µg/mL)
Give just the number in µg/mL; leave the unit off.

Look over these answered cases.
molecule	MIC90 [µg/mL]
CN(C)[C@@H]1C(O)=C(C(N)=O)C(=O)[C@@]2(O)C(O)=C3C(=O)c4c(O)c(NC(=O)CN5CCC5)cc(F)c4C[C@H]3C[C@@H]12 [drawing 216]	0.03
CN(C)c1cc(NC(=O)CNC(C)(C)C)c(O)c2c1C[C@H]1C[C@H]3[C@H](N(C)C)C(O)=C(C(N)=O)C(=O)[C@@]3(O)C(O)=C1C2=O	0.06

For CN(C)[C@@H]1C(O)=C(C(N)=O)C(=O)[C@@]2(O)C(O)=C3C(=O)c4c(O)c(NC(=O)CNC(C)(C)C)cc(F)c4C[C@H]3C[C@@H]12 [drawing 214] on clinical isolates of S. aureus, measured MIC90 was 0.03

* * *

Test system: S. aureus ATCC 29213 (SA101, MSSA)
measure.name: MIC

compound.structure.string	experimental.target	MIC
CN(C)[C@@H]1C(O)=C(C(N)=O)C(=O)[C@@]2(O)C(O)=C3C(=O)c4c(O)c(NC(=O)CN5CCCC5)cc(F)c4C[C@H]3C[C@@H]12	S. aureus ATCC 29213 (SA101, MSSA)	≤ 0.0156 µg/mL

For CCCCCNCC(=O)Nc1cc(F)c2c(c1O)C(=O)C1=C(O)[C@]3(O)C(=O)C(C(N)=O)=C(O)[C@@H](N(C)C)[C@@H]3C[C@@H]1C2 on S. aureus ATCC 29213 (SA101, MSSA), measured MIC was 1 µg/mL

For CN(C)[C@@H]1C(O)=C(C(N)=O)C(=O)[C@@]2(O)C(O)=C3C(=O)c4c(O)c(NC(=O)CN5CCC5)cc(F)c4C[C@H]3C[C@@H]12 on S. aureus ATCC 29213 (SA101, MSSA), measured MIC was 0.125 µg/mL

For CN(C)CC(=O)Nc1cc(F)c2c(c1O)C(=O)C1=C(O)[C@]3(O)C(=O)C(C(N)=O)=C(O)[C@@H](N(C)C)[C@@H]3C[C@@H]1C2 on S. aureus ATCC 29213 (SA101, MSSA), measured MIC was ≤ 0.0156 µg/mL

For COCCNCC(=O)Nc1cc(F)c2c(c1O)C(=O)C1=C(O)[C@]3(O)C(=O)C(C(N)=O)=C(O)[C@@H](N(C)C)[C@@H]3C[C@@H]1C2 on S. aureus ATCC 29213 (SA101, MSSA), measured MIC was 0.25 µg/mL

* * *

System: K. pneumoniae KP153 (tet resistant: tetA efflux)
Test: microbe, parasite or virus in culture
Format: cell-based
Conditions: Klebsiella pneumoniae, read-out: MICs KP153
Below is a list of entries, each paired with its recorded MIC value.
Give just the number in µg/mL; leave the unit off.

Look over these answered cases.
molecule	measurement
CN(C)[C@@H]1C(O)=C(C(N)=O)C(=O)[C@@]2(O)C(O)=C3C(=O)c4c(O)c(NC(=O)CNC5CC5)cc(F)c4C[C@H]3C[C@@H]12 [Compound 17]	32
CCCN(C)CC(=O)Nc1cc(F)c2c(c1O)C(=O)C1=C(O)[C@]3(O)C(=O)C(C(N)=O)=C(O)[C@@H](N(C)C)[C@@H]3C[C@@H]1C2 [Compound 28]	16
CCN(CC)CC(=O)Nc1cc(F)c2c(c1O)C(=O)C1=C(O)[C@]3(O)C(=O)C(C(N)=O)=C(O)[C@@H](N(C)C)[C@@H]3C[C@@H]1C2 [Compound 25]	8
CC(C)CNCC(=O)Nc1cc(F)c2c(c1O)C(=O)C1=C(O)[C@]3(O)C(=O)C(C(N)=O)=C(O)[C@@H](N(C)C)[C@@H]3C[C@@H]1C2 [Compound 19]	4
CN(C)[C@@H]1C(O)=C(C(N)=O)C(=O)[C@@]2(O)C(O)=C3C(=O)c4c(O)c(NC(=O)CNC(C)(C)C)cc(F)c4C[C@H]3C[C@@H]12 [Compound 11]	2

For CCN(C)CC(=O)Nc1cc(F)c2c(c1O)C(=O)C1=C(O)[C@]3(O)C(=O)C(C(N)=O)=C(O)[C@@H](N(C)C)[C@@H]3C[C@@H]1C2 [Compound 24] on K. pneumoniae KP153 (tet resistant: tetA efflux), measured MIC was 8

For CCCCNCC(=O)Nc1cc(F)c2c(c1O)C(=O)C1=C(O)[C@]3(O)C(=O)C(C(N)=O)=C(O)[C@@H](N(C)C)[C@@H]3C[C@@H]1C2 [Compound 13] on K. pneumoniae KP153 (tet resistant: tetA efflux), measured MIC was 2

For CN(C)CC(=O)Nc1cc(F)c2c(c1O)C(=O)C1=C(O)[C@]3(O)C(=O)C(C(N)=O)=C(O)[C@@H](N(C)C)[C@@H]3C[C@@H]1C2 [Compound 23] on K. pneumoniae KP153 (tet resistant: tetA efflux), measured MIC was 8

For CN(C)[C@@H]1C(O)=C(C(N)=O)C(=O)[C@@]2(O)C(O)=C3C(=O)c4c(O)c(NC(=O)CN5Cc6ccccc6C5)cc(F)c4C[C@H]3C[C@@H]12 [Compound 46] on K. pneumoniae KP153 (tet resistant: tetA efflux), measured MIC was 32

* * *

This section lists MIC readings for K. pneumoniae ATCC 13883 (KP109).

Look over these answered cases.
molecule	experimental.target	MIC
CN(C)CC(=O)Nc1cc(F)c2c(c1O)C(=O)C1=C(O)[C@]3(O)C(=O)C(C(N)=O)=C(O)[C@@H](N(C)C)[C@@H]3C[C@@H]1C2 [Compound 23]	K. pneumoniae ATCC 13883 (KP109)	0.5 µg/mL
CN(C)[C@@H]1C(O)=C(C(N)=O)C(=O)[C@@]2(O)C(O)=C3C(=O)c4c(O)c(NC(=O)CN5Cc6ccccc6C5)cc(F)c4C[C@H]3C[C@@H]12 [Compound 46]	K. pneumoniae ATCC 13883 (KP109)	4 µg/mL
CN(C)[C@@H]1C(O)=C(C(N)=O)C(=O)[C@@]2(O)C(O)=C3C(=O)c4c(O)c(NC(=O)CN5CCCC5)cc(F)c4C[C@H]3C[C@@H]12 [Compound 34]	K. pneumoniae ATCC 13883 (KP109)	0.5 µg/mL

Attention now turns to another entry.
For CN(C)[C@@H]1C(O)=C(C(N)=O)C(=O)[C@@]2(O)C(O)=C3C(=O)c4c(O)c(NC(=O)CNCC(C)(C)C)cc(F)c4C[C@H]3C[C@@H]12 [Compound 15] on K. pneumoniae ATCC 13883 (KP109), measured MIC was 2 µg/mL

* * *

Below is a list of entries, each paired with its recorded MIC value.
Tested on: K. pneumoniae ATCC 13883 (KP109)
Experiment: Minimum inhibitory concentration assay, KP109
Type: cell-based
Details: Klebsiella pneumoniae, ATCC13883; K. pneumoniae ATCC 13883, wt; read-out: MICs KP109
Procedure: Frozen bacterial strains were thawed and subcultured onto Mueller Hinton Broth (MHB) or other appropriate media (Streptococcus requires blood and Haemophilus requires hemin and NAD). […] The assays were run as follows. […] The plates were then incubated at 37° C. overnight, removed from the incubator and each well was read on a plate reading mirror. The lowest concentration (MIC) of test compound that inhibited the growth of the bacteria was recorded.
Give just the number in mg/L; leave the unit off.

Look over these answered cases.
compound	unit.label	measurement
CN(C)[C@@H]1C(O)=C(C(N)=O)C(=O)[C@@]2(O)C(O)=C3C(=O)c4c(O)c(NC(=O)CN5CC[C@H](O)C5)cc(F)c4C[C@H]3C[C@@H]12	mg/L	8
CN(C)[C@@H]1C(O)=C(C(N)=O)C(=O)[C@@]2(O)C(O)=C3C(=O)c4c(O)c(NC(=O)CN5CC[C@@H](F)C5)cc(F)c4C[C@H]3C[C@@H]12	mg/L	4
CC(C)NCC(=O)Nc1cc(F)c2c(c1O)C(=O)C1=C(O)[C@]3(O)C(=O)C(C(N)=O)=C(O)[C@@H](N(C)C)[C@@H]3C[C@@H]1C2	mg/L	1
CN(C)[C@@H]1C(O)=C(C(N)=O)C(=O)[C@@]2(O)C(O)=C3C(=O)c4c(O)c(NC(=O)CN5CC6CCCC6C5)cc(F)c4C[C@H]3C[C@@H]12 (some centres unmarked)	mg/L	2

Attention now turns to another entry.
Note to self: MIC recorded for CN(C)[C@@H]1C(O)=C(C(N)=O)C(=O)[C@@]2(O)C(O)=C3C(=O)c4c(O)c(NC(=O)CNC(C)(C)C)cc(F)c4C[C@H]3C[C@@H]12 was 1

The reported numbers originate from patent US8796245B2.
